tested on: A549: a human lung cancer cell line; test: MTT analytical method, A549 cells; type: cell-based; settings: 72 h
Reported pIC50 by item:
FYI, pIC50 means -log10 of a concentration in mol per litre.

Sample answers from the record:
molecule	measured-metric	numeric-result
CCCCCCCCCCCOC(=O)c1ccnc(C(=O)Nc2ccn([C@@H]3O[C@H](CO)[C@@H](O)C3(F)F)c(=O)n2)c1 [Compound 28]	pIC50	5.10
CCCCCCCCCCCCOC(=O)c1ccncc1C(=O)Nc1ccn([C@@H]2O[C@H](CO)[C@@H](O)C2(F)F)c(=O)n1 [Compound 24]	pIC50	5.10

// below: pIC50 requested for another molecule
Look up pIC50 for this molecule: CCCCCCCCCCCOC(=O)c1ccncc1C(=O)Nc1ccn([C@@H]2O[C@H](CO)[C@@H](O)C2(F)F)c(=O)n1 [Compound 22]
5.10
